# Test system: Staphylococcus aureus
# protocol-summary: Antibacterial activity against methicillin-resistant Staphylococcus aureus ATCC 33591 assessed as reduction in bacterial growth incubated for 18 hrs by agar dilution method
# Format: functional
Square brackets hold non-standard residues; d marks the D form. Peptide text beside a SMILES is read from it. 2Nal = N[C@@H](Cc1ccc2ccccc2c1)C(=O)O; hIle = CC[C@H](C)C[C@H](N)C(=O)O; Cha = N[C@@H](CC1CCCCC1)C(=O)O
measured-attribute: MIC (µM)
Numbers only, in µM.

CC[C@H](C)[C@H](NC(=O)[C@H](CCCCN)NC(=O)[C@H](CCCCN)NC(=O)[C@H](CC(C)C)NC(=O)[C@H](CC(C)C)NC(=O)CN)C(=O)N[C@@H](CCCCN)C(=O)N[C@@H](Cc1c[nH]c2ccccc12)C(=O)N[C@@H](CC(C)C)C(=O)N[C@@H](CC(C)C)C(N)=O (H-GLLKKIKWLL-NH2): 28.4
CC[C@H](C)[C@H](NC(=O)[C@H](CCCNC(=N)N)NC(=O)[C@H](CCCCN)NC(=O)[C@H](CC(C)C)NC(=O)[C@H](Cc1ccc2ccccc2c1)NC(=O)CN)C(=O)N[C@@H](CCCCN)C(=O)N[C@H](C(=O)N[C@@H](CC(C)C)C(=O)N[C@@H](CC(C)C)C(N)=O)[C@@H](C)O (H-G[2Nal]LKRIKTLL-NH2): 15.8

Hey, quick one: what's MIC for each of these?
1. CC[C@H](C)[C@H](NC(=O)[C@H](CCCNC(=N)N)NC(=O)[C@H](CCCCN)NC(=O)[C@H](Cc1ccc2ccccc2c1)NC(=O)[C@H](CC(C)C)NC(=O)CN)C(=O)N[C@@H](CCCCN)C(=O)N[C@H](C(=O)N[C@@H](CC(C)C)C(=O)N[C@@H](CC(C)C)C(N)=O)[C@@H](C)O (H-GL[2Nal]KRIKTLL-NH2)
2. CC(C)C[C@H](NC(=O)[C@H](CC(C)C)NC(=O)[C@@H](NC(=O)[C@H](CCCCN)NC(=O)[C@H](CC1CCCCC1)NC(=O)[C@H](CCCNC(=N)N)NC(=O)[C@H](CCCCN)NC(=O)[C@H](CC(C)C)NC(=O)[C@H](CC(C)C)NC(=O)CN)[C@@H](C)O)C(N)=O (H-GLLKR[Cha]KTLL-NH2)
3. CC[C@H](C)C[C@H](NC(=O)[C@H](CCCNC(=N)N)NC(=O)[C@H](CCCCN)NC(=O)[C@H](CC(C)C)NC(=O)[C@H](CC1CCCCC1)NC(=O)CN)C(=O)N[C@@H](CCCCN)C(=O)N[C@H](C(=O)N[C@@H](CC(C)C)C(=O)N[C@@H](CC(C)C)C(N)=O)[C@@H](C)O (H-G[Cha]LKR[hIle]KTLL-NH2)

28.4
28.4
85.3

Where these numbers come from: ChEMBL document CHEMBL5608163
